# inhibition per record follows
# MEASURED_ON: 72 kDa type IV collagenase (Homo sapiens, UniProt P08253)
# Sequence (P08253 110-660 limits assumed): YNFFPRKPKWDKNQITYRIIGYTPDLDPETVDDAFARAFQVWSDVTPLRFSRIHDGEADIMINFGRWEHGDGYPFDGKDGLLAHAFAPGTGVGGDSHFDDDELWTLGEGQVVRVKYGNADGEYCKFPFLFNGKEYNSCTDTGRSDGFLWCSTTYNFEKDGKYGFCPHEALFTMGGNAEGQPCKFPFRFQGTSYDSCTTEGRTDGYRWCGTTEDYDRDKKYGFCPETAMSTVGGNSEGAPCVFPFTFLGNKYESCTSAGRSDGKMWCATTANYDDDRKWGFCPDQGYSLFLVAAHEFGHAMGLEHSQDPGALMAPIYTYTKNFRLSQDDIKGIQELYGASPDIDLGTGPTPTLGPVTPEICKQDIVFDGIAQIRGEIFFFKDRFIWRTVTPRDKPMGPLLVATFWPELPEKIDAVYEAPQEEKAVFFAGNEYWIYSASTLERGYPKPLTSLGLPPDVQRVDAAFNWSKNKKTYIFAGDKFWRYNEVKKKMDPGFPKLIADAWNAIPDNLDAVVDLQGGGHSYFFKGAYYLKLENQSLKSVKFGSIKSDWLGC
# ASSAY_NAME: Inhibition of MMP2 at 50 uM
# value in %; strip the unit string

{"columns": ["MOLECULE", "inhibition [%]"],
 "data": [
  ["NC1=NC2C=CC=NC(C3CCCCC3)=C2N1 (stereo not drawn)", 53],
  ["CC(C)Cc1nccc2nc(N)[nH]c12", 22],
  ["Nc1nc2ccnc(-c3c[nH]c4ccccc34)c2[nH]1", 26],
  ["Nc1nc2ccnc(C3CCCCC3)c2[nH]1", 40],
  ["NC1=NC2C=CC=NC(c3ccc(Cl)cc3)=C2N1 (stereo not drawn)", 54]
]}

Bench note, 72 kDa type IV collagenase (Homo sapiens, UniProt P08253): entry CC(C)C1=C2NC(N)=NC2C=CC=N1 (stereo not drawn) , its inhibition = 52

Bench note, 72 kDa type IV collagenase (Homo sapiens, UniProt P08253): entry CC(C)CC1=C2NC(N)=NC2C=CC=N1 (stereo not drawn) , its inhibition = 60

Bench note, 72 kDa type IV collagenase (Homo sapiens, UniProt P08253): entry `CC(C)c1nccc2nc(N)[nH]c12` , its inhibition = 17

###

# MEASURED_ON: 72 kDa type IV collagenase (Homo sapiens)
# ASSAY_NAME: Inhibition of MMP2 at 5 uM
# inhibition per record follows

{"columns": ["MOLECULE", "MEASURED_ON", "inhibition"],
 "data": [
  ["NC1=NC2C=CC=NC(C3CCCCC3)=C2N1 (centres undefined)", "72 kDa type IV collagenase (Homo sapiens)", "23%"]
]}

Record `Nc1nc2ccnc(-c3c[nH]c4ccccc34)c2[nH]1` . Reported inhibition: 25%

Record `CC(C)Cc1nccc2nc(N)[nH]c12` . Reported inhibition: 31%

Record CC(C)CC1=C2NC(N)=NC2C=CC=N1 (centres undefined) . Reported inhibition: 27%

Record `Nc1nc2ccnc(-c3cccc4ccccc34)c2[nH]1` . Reported inhibition: 20%

###

# MEASURED_ON: 72 kDa type IV collagenase (Homo sapiens)
# ASSAY_NAME: Inhibition of MMP2 at 5 uM
METRIC_NAME: inhibition (%)
# value in %; strip the unit string

Example results:
{"columns": ["MOLECULE", "MEASURED_ON", "inhibition, %"],
 "data": [
  ["Nc1nc2ccnc(C3CCCCC3)c2[nH]1", "72 kDa type IV collagenase (Homo sapiens)", 9],
  ["CC(C)C1=C2NC(N)=NC2C=CC=N1 (centres undefined)", "72 kDa type IV collagenase (Homo sapiens)", 28],
  ["CC(C)c1nccc2nc(N)[nH]c12", "72 kDa type IV collagenase (Homo sapiens)", 25]
]}

Bench note, 72 kDa type IV collagenase (Homo sapiens): entry NC1=NC2C=CC=NC(c3ccc(Cl)cc3)=C2N1 (centres undefined) , its inhibition = 27
